meta.source: paper PMC8900822

assay metric: Ki (µM)
Please state the figure in µM; there is no need to write the unit.

Qu. Lab request: please report Ki under test system mtCA 03 (Mycobacterium tuberculosis) for `Nc1cc(C(Cl)=C(Cl)Cl)c(S(N)(=O)=O)cc1S(N)(=O)=O`
Ans. 0.828

----------
tgt: hCA XII (Homo sapiens, UniProt O43570)
Sequence (O43570 25-354): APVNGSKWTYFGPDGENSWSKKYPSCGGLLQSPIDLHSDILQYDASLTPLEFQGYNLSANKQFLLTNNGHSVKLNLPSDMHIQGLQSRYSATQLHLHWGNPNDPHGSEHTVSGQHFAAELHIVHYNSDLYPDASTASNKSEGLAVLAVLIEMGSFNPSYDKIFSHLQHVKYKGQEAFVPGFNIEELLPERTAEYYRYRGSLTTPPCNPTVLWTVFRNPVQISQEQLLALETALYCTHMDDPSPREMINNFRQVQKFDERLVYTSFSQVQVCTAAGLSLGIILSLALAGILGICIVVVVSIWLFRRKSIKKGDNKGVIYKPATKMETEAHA
assay metric: pKi
Give only the number. pKi is defined as minus log10 of concentration in molar units.

Qu. What value of pKi has been recorded for this entry: Nc1cc(C(Cl)=C(Cl)Cl)c(S(N)(=O)=O)cc1S(N)(=O)=O [Clorsulon]
Ans. 7.11

----------
tgt: SmCA (Schistosoma mansoni, UniProt A0A4Y5UX87, S271R)
test details: biochemical
assay metric: pKi
Give only the number. pKi is defined as minus log10 of concentration in molar units.

Qu. What value of pKi has been recorded for this entry: `Nc1cc(C(Cl)=C(Cl)Cl)c(S(N)(=O)=O)cc1S(N)(=O)=O`
Ans. 6.65

----------
tgt: UniProtKB Q5U9J1
Sequence (Q5U9J1 1-281): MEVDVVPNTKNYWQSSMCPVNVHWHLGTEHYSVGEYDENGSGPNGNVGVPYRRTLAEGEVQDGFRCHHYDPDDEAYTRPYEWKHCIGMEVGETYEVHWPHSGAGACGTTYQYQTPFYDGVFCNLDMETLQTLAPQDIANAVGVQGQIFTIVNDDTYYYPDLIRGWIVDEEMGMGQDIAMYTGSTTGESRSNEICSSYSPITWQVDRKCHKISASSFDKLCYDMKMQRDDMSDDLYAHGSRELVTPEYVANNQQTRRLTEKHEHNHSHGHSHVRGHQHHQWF
assay metric: Ki (nM)
Please state the figure in nM; there is no need to write the unit.

Qu. What value of Ki has been recorded for this entry: Nc1cc(C(Cl)=C(Cl)Cl)c(S(N)(=O)=O)cc1S(N)(=O)=O [Clorsulon]
Ans. 95.8

----------
tgt: hCA I (Homo sapiens, UniProt P00915)
Sequence (P00915 whole entry): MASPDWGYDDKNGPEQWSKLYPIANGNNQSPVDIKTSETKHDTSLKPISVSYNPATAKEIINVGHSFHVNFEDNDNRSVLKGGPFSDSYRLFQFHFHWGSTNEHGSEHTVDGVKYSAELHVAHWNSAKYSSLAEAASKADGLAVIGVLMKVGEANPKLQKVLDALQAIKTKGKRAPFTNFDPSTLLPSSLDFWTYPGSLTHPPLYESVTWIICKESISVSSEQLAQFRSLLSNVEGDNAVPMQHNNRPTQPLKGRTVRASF
assay metric: pKi
Give only the number. pKi is defined as minus log10 of concentration in molar units.

Qu. What value of pKi has been recorded for this entry: `Nc1cc(C(Cl)=C(Cl)Cl)c(S(N)(=O)=O)cc1S(N)(=O)=O`
Ans. 5.35

----------
tgt: mtCA 02 (Mycobacterium tuberculosis)
Sequence (P9WPJ9 whole entry, looked up): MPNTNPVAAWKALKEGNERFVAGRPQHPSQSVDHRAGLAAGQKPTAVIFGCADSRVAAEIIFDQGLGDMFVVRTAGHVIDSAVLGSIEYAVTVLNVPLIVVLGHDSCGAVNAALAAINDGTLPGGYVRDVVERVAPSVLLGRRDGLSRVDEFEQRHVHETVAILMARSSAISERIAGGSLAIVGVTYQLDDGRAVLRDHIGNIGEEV
assay metric: pKi
Give only the number. pKi is defined as minus log10 of concentration in molar units.

Qu. What value of pKi has been recorded for this entry: Nc1cc(C(Cl)=C(Cl)Cl)c(S(N)(=O)=O)cc1S(N)(=O)=O [Clorsulon]
Ans. 8.54

----------
assay metric: pKi
Give only the number. pKi is defined as minus log10 of concentration in molar units.

Qu. Lab request: please report pKi under test system SazCA (Sulfurihydrogenibium azorense, UniProt C1DTU5) for `Nc1cc(C(Cl)=C(Cl)Cl)c(S(N)(=O)=O)cc1S(N)(=O)=O`
Ans. 8.11

----------
tgt: BpsCAβ (Burkholderia pseudomallei, UniProt Q63Y17)
Sequence (Q63Y17 1-256): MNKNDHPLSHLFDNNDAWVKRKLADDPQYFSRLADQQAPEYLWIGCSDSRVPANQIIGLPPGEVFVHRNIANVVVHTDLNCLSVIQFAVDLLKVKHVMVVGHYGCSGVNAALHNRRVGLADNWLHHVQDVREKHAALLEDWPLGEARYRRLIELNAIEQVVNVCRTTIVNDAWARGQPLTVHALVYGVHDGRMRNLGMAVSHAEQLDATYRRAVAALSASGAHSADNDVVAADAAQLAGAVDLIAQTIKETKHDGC
measurement context: pH 8.3
assay metric: Ki (nM)
Please state the figure in nM; there is no need to write the unit.

Qu. What value of Ki has been recorded for this entry: Nc1cc(C(Cl)=C(Cl)Cl)c(S(N)(=O)=O)cc1S(N)(=O)=O [Clorsulon]
Ans. 223

----------
tgt: VhCAα (Vibrio cholerae)
Sequence (Q9KMP6 entry or part of it): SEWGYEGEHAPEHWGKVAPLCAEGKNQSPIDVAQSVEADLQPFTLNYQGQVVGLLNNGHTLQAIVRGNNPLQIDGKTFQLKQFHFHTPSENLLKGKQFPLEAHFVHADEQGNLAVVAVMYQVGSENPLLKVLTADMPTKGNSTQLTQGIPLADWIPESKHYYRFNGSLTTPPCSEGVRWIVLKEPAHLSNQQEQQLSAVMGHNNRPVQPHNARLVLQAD
test details: biochemical
assay metric: pKi
Give only the number. pKi is defined as minus log10 of concentration in molar units.

Qu. What value of pKi has been recorded for this entry: `Nc1cc(C(Cl)=C(Cl)Cl)c(S(N)(=O)=O)cc1S(N)(=O)=O`
Ans. 6.54
